experimental_target: His-tagged KRAS G12D protein (Homo sapiens, UniProt P01116, G12D)
Sequence (P01116 1-188 isoform P01116-2 G12D): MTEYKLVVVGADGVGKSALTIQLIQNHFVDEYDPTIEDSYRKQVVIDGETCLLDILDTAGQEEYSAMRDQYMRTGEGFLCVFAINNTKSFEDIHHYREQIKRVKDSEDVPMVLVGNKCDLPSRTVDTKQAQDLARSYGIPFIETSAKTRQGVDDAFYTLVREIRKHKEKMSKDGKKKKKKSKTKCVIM
assay_protocol: KRAS G12D TR-FRET assay (binding)
condition_context: biotinylated KRPep-2d substrate, GDP in assay buffer
value_kind: IC50 (nM)

Observe how each entry below is paired with its result.
compound: CCc1c(F)ccc2cc(O)cc(-c3ncc4c(N5CCCOCC5)nc(OCC5(CO)CC5)nc4c3F)c12
IC50 / nM: 41
--
compound: CCc1c(F)ccc2cc(O)cc(-c3ncc4c(N5CCS(=N)(=O)CC5)nc(OC[C@@]56CCCN5C[C@H](F)C6)nc4c3F)c12
IC50 / nM: 57

a. CCc1c(F)ccc2cc(O)cc(-c3ncc4c(N5CCOC(CO)CC5)nc(OC[C@@]56CCCN5C[C@H](F)C6)nc4c3F)c12 (stereo partly shown)
b. CCc1cccc2cc(O)cc(-c3ncc4c(N5CCOCC(F)(F)C5)nc(OC[C@@]56CCCN5C[C@H](F)C6)nc4c3F)c12
(Q) # compare IC50 for a vs b ; return the one with the smaller value // respond with label for picked entry
(A) b
(b: 2 nM, a: 13 nM)
